Give measured MIC for each item. Keep answers brief.
System: Escherichia coli
procedure.details: Antibacterial activity against Escherichia coli ATCC 25922 assessed as bacterial growth inhibition incubated for 24 hrs by CLSI based broth microdilution method
Type: functional
Entry rule: numbers only, all in µg/mL.

Can you look up the measured MIC of C=C[C@]1(C)C[C@@H](OC(=O)COC(=O)/C=C/c2ccncc2)[C@]2(C)[C@H](C)CC[C@]3(CCC(=O)[C@H]32)[C@@H](C)[C@@H]1O for me?
64

Another molecule to look at: C=C[C@]1(C)C[C@@H](OC(=O)COC(=O)/C=C/c2ccc(F)cc2)[C@]2(C)[C@H](C)CC[C@]3(CCC(=O)[C@H]32)[C@@H](C)[C@@H]1O
128

Another molecule to look at: C=C[C@]1(C)C[C@@H](OC(=O)COC(=O)/C=C/c2cccc(Cl)c2)[C@]2(C)[C@H](C)CC[C@]3(CCC(=O)[C@H]32)[C@@H](C)[C@@H]1O
64

Another molecule to look at: C=C[C@]1(C)C[C@@H](OC(=O)COC(=O)/C=C/c2cccc(C(F)(F)F)c2)[C@]2(C)[C@H](C)CC[C@]3(CCC(=O)[C@H]32)[C@@H](C)[C@@H]1O
64

Another molecule to look at: C=C[C@]1(C)C[C@@H](OC(=O)COC(=O)/C=C/c2ccc(F)c(F)c2F)[C@]2(C)[C@H](C)CC[C@]3(CCC(=O)[C@H]32)[C@@H](C)[C@@H]1O
64

Another molecule to look at: C=C[C@]1(C)C[C@@H](OC(=O)CSCCN(CC)CC)[C@]2(C)[C@H](C)CC[C@]3(CCC(=O)[C@H]32)[C@@H](C)[C@@H]1O [TIAMULIN]
64

Another molecule to look at: C=C[C@]1(C)C[C@@H](OC(=O)CSC(C)(C)CNC(=O)[C@H](N)C(C)C)[C@]2(C)[C@H](C)CC[C@]3(CCC(=O)[C@H]32)[C@@H](C)[C@@H]1O [VALNEMULIN]
2

Another molecule to look at: C=C[C@]1(C)C[C@@H](OC(=O)COC(=O)/C=C/c2ccco2)[C@]2(C)[C@H](C)CC[C@]3(CCC(=O)[C@H]32)[C@@H](C)[C@@H]1O
64

Another molecule to look at: C=C[C@]1(C)C[C@@H](OC(=O)COC(=O)/C(C#N)=C/c2ccccc2)[C@]2(C)[C@H](C)CC[C@]3(CCC(=O)[C@H]32)[C@@H](C)[C@@H]1O
8

Another molecule to look at: C=C[C@]1(C)C[C@@H](OC(=O)COC(=O)/C=C/c2ccc(C(F)(F)F)cc2F)[C@]2(C)[C@H](C)CC[C@]3(CCC(=O)[C@H]32)[C@@H](C)[C@@H]1O
128

Another molecule to look at: C=C[C@]1(C)C[C@@H](OC(=O)COC(=O)/C=C/c2ccccc2)[C@]2(C)[C@H](C)CC[C@]3(CCC(=O)[C@H]32)[C@@H](C)[C@@H]1O
128

Another molecule to look at: C=C[C@]1(C)C[C@@H](OC(=O)COC(=O)/C=C/c2cc(Br)ccc2F)[C@]2(C)[C@H](C)CC[C@]3(CCC(=O)[C@H]32)[C@@H](C)[C@@H]1O
64

Another molecule to look at: C=C[C@]1(C)C[C@@H](OC(=O)COC(=O)/C=C/c2ccc(C(F)(F)F)cc2)[C@]2(C)[C@H](C)CC[C@]3(CCC(=O)[C@H]32)[C@@H](C)[C@@H]1O
64
